Data provenance is ChEMBL document CHEMBL1137755.

- experimental_system: Guanine nucleotide-binding protein G(i) subunit alpha-1 (Homo sapiens) (UniProt P63096)
- Sequence (P63096 whole entry): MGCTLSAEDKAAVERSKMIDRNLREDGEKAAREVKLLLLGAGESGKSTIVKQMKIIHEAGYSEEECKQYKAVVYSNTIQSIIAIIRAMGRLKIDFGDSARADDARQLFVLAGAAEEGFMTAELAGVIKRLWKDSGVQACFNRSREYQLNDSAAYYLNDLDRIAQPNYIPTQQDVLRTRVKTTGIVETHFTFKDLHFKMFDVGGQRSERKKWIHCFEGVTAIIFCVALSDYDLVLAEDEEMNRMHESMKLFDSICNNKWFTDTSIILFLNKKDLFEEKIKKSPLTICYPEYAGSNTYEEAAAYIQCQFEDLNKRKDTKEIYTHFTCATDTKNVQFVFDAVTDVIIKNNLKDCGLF
- method_summary: Activation of human Gi protein alpha1 subunit expressed in Escherichia coli assessed as protein bound [35S]GTPgammaS levels at 10 uM by scintillation spectroscopy relative to basal
- Format: functional
Overview of reported Activity across a group of molecules:
Form entry: value (%) — number only.

Observe how each entry below is paired with its result.
CCCCCCCCCCCCCCCN1CCC(NC(=O)[C@@H](N)CCCCN)CC1 : 1660
CCCCCCCCCCCCCCCNCC1CCN(CCNC=O)CC1 : 1170

*Q* Write down the reported Activity of "CCCCCCCCCCCCCCCNC1CCNCC1" , test system: Guanine nucleotide-binding protein G(i) subunit alpha-1 (Homo sapiens) (UniProt P63096).
*A* 693
